The values you see were collected from patent US20120207760A1.

# study-target: hemagglutinin (HA) of influenza A/Solomon Islands/3/06 H1N1 (Influenza A virus A/Solomon …)
# assay-info: cell-based or functional assay
Reported % Neutralization values are given for each entry in this list.
assay-readout: % Neutralization

binder: TCN-542 (5079_A16) (antibody, V domains shown) VH: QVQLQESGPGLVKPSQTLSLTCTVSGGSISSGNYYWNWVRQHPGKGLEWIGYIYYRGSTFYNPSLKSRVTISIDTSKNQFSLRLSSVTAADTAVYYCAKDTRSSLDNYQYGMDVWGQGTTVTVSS VL: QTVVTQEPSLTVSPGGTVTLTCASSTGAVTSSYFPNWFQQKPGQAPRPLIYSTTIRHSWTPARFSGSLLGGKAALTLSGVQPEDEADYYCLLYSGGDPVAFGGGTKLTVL
result: 98%
--
binder: TCN-534 (5249_B02) (antibody, V domains shown) VH: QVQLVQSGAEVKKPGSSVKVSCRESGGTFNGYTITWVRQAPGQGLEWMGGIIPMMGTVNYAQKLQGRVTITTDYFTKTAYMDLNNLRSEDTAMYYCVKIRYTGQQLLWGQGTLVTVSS VL: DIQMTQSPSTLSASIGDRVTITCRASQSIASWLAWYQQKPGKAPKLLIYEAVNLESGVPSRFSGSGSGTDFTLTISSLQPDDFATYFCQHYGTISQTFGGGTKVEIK
result: 86%
